measurement.target: Solute carrier organic anion transporter family member 1B1 (Homo sapiens, UniProt Q9Y6L6)
Sequence (Q9Y6L6 whole entry): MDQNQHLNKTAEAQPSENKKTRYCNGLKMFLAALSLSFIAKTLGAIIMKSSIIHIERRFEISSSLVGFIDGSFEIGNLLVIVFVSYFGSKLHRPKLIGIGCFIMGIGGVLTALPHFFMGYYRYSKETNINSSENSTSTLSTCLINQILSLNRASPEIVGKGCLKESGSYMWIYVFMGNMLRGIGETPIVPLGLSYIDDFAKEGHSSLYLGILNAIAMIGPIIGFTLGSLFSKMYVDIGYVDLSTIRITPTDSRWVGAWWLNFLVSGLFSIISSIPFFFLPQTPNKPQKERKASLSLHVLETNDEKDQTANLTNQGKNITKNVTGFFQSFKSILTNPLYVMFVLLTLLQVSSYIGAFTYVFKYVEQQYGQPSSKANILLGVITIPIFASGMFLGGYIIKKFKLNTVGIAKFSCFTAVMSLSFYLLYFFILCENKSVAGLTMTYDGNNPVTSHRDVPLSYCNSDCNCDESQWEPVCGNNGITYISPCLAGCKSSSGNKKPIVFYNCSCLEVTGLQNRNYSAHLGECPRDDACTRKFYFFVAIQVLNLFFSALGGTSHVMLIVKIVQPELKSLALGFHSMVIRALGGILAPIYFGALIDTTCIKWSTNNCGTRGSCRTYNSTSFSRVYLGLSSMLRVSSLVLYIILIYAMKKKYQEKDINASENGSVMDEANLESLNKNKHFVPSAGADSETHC
condition.notes: chinese hamster, cho, 10 µM
Task for the reader: assign each of the following compounds its reported residual activity.
Write the answer as a number in %, unit excluded.

Challenge: Name the reported residual activity value associated with the compound `Nc1ccc(S(=O)(=O)Nc2ncccn2)cc1`
Response given: 90.81

Challenge: I would be grateful if you could share the reported residual activity for `CC(=O)Oc1ccc(Cl)c2cccnc12` .
Response given: 90.22

Challenge: Return reported residual activity; argument: `COc1ccc(-c2cc(=O)c3c(O)c(OC)c(OC)cc3o2)cc1O`
Response given: 87.53

----------
Answer each item with its documented residual activity.
measurement.target: Solute carrier organic anion transporter family member 1B1 (Homo sapiens, UniProt Q9Y6L6)
condition.notes: chinese hamster, cho, 10 µM
Answer with a number only, understood to be in %.

Challenge: Entry under review: CC1(C)CC2C1CC[C@]1(CBr)CCC3C(CC(=O)O)C(=O)O[C@@]32C1 (stereo not given in full) . Reported residual activity?
Response given: 26.83

Challenge: Find the recorded residual activity belonging to Cl.NC(CO)C(=O)NNCc1ccc(O)c(O)c1O (stereo not given) [BENSERAZIDE HYDROCHLORIDE] and report it.
Response given: 93.51

Challenge: What does the record list as residual activity for Clc1ccc(COC(Cn2ccnc2)c2ccc(Cl)cc2Cl)c(Cl)c1.O=[N+]([O-])O (stereo not given) [MICONAZOLE NITRATE] ?
Response given: 124.1

Challenge: Requested field: residual activity. Item: `COc1ccc2c(c1)OC/C(=C/c1ccc(OC)c(OC)c1)C2=O`
Response given: 112

Challenge: I would be grateful if you could share the reported residual activity for `CC(C)CCC[C@@H](C)[C@H]1CC[C@H]2[C@@H]3CC[C@H]4CCCC[C@]4(C)[C@H]3CC[C@]12C` .
Response given: 88.28
